assay: Cytotoxicity against human UACC257 cells; format: functional; conditions: UACC-257, read-out: pTGI (converted)
Parameter measured: TGI (µM)
Number only, in µM; omit the unit.

// known answers, use as guide
Test smiles: COc1cc(/C=C/c2cc(O)c3c(c2)C[C@@H]2C(C)(C)[C@H](O)CC[C@@]2(C)O3)cc2c1ccn2C
Measurement unit: µM
TGI: 25.1
--
Test smiles: COc1cc(/C=C/c2cc(O)c3ccn(C)c3c2)cc2c1O[C@]1(C)CC[C@@H](O)C(C)(C)[C@H]1C2
Measurement unit: µM
TGI: 8.13

Form field: reported TGI of COc1cc(/C=C/c2cc(O)c3cc[nH]c3c2)cc2c1O[C@]1(C)CC[C@@H](O)C(C)(C)[C@H]1C2
8.32

Form field: reported TGI of COc1cc(/C=C/c2cc(OC)c3c(C/C=C(\C)CCC=C(C)C)c[nH]c3c2)cc2c1O[C@]1(C)CC[C@@H](O)C(C)(C)[C@H]1C2
25.7

Form field: reported TGI of COc1cc(/C=C/c2cc(OC)c3c(CC=C(C)C)c[nH]c3c2)cc2c1O[C@]1(C)CC[C@@H](O)C(C)(C)[C@H]1C2
12.9

Form field: reported TGI of COc1cc(/C=C/c2cc(O)c3c(CC=C(C)C)c[nH]c3c2)cc2c1O[C@]1(C)CC[C@@H](O)C(C)(C)[C@H]1C2
50.1

Form field: reported TGI of COc1cc(/C=C/c2cc(O)c3cc(CC=C(C)C)[nH]c3c2)cc2c1O[C@]1(C)CC[C@@H](O)C(C)(C)[C@H]1C2
81.3

Form field: reported TGI of COc1cc(/C=C/c2cc(OC)c3ccn(C)c3c2)cc2c1O[C@]1(C)CC[C@@H](O)C(C)(C)[C@H]1C2
35.5

Form field: reported TGI of COc1cc(/C=C/c2cc(OC)c3cc[nH]c3c2)cc2c1O[C@]1(C)CC[C@@H](O)C(C)(C)[C@H]1C2
0.759

Form field: reported TGI of COc1cc(/C=C/c2cc(O)c3c(c2)C[C@@H]2C(C)(C)[C@H](O)CC[C@@]2(C)O3)cc2[nH]cc(CC=C(C)C)c12
49

Form field: reported TGI of COc1cc(/C=C/c2cc(O)c3c(C/C=C(\C)CCC=C(C)C)c[nH]c3c2)cc2c1O[C@]1(C)CC[C@@H](O)C(C)(C)[C@H]1C2
49

Form field: reported TGI of CC1(C)[C@H](O)CC[C@@]2(C)Oc3c(O)cc(/C=C/c4cc(O)c5cc[nH]c5c4)cc3C[C@H]12
16.2

* * *

The compounds listed here are annotated with their TGI.
test: Cytotoxicity against human UO31 cells; type: functional; details: UO-31, read-out: pTGI (converted)
Number only, in µM; omit the unit.

// known answers, use as guide
Test smiles: COc1cc(/C=C/c2cc(O)c3cc[nH]c3c2)cc2c1O[C@]1(C)CC[C@@H](O)C(C)(C)[C@H]1C2
TGI, µM: 2.04
//
Test smiles: COc1cc(/C=C/c2cc(OC)c3cc[nH]c3c2)cc2c1O[C@]1(C)CC[C@@H](O)C(C)(C)[C@H]1C2
TGI, µM: 0.977
//
Test smiles: COc1cc(/C=C/c2cc(O)c3ccn(C)c3c2)cc2c1O[C@]1(C)CC[C@@H](O)C(C)(C)[C@H]1C2
TGI, µM: 7.24
//
Test smiles: COc1cc(/C=C/c2cc(OC)c3c(CC=C(C)C)c[nH]c3c2)cc2c1O[C@]1(C)CC[C@@H](O)C(C)(C)[C@H]1C2
TGI, µM: 6.92
//
Test smiles: COc1cc(/C=C/c2cc(OC)c3c(C/C=C(\C)CCC=C(C)C)c[nH]c3c2)cc2c1O[C@]1(C)CC[C@@H](O)C(C)(C)[C@H]1C2
TGI, µM: 14.1
//
Test smiles: COc1cc(/C=C/c2cc(O)c3c(c2)C[C@@H]2C(C)(C)[C@H](O)CC[C@@]2(C)O3)cc2[nH]cc(CC=C(C)C)c12
TGI, µM: 21.4

Below: the item to evaluate.
Form field: reported TGI of COc1cc(/C=C/c2cc(O)c3c(c2)C[C@@H]2C(C)(C)[C@H](O)CC[C@@]2(C)O3)cc2c1ccn2C
2.95
